Hello, the source for this data is ChEMBL document CHEMBL3608248, in case you need it.

assay: in vitro; conditions: rat, liver microsomes
measure: half-life (h)
Only the number, expressed in h, is required.

Data request, read-out half-life, for `CN[C@@H](C)C(=O)N[C@H](C(=O)N1C[C@H]2CCCCOc3ccc(cc3)C[C@@H](C(=O)O)NC(=O)[C@H](Cc3ccc4ccccc4c3)NC(=O)[C@@H]3C[C@@H](CN3C(=O)[C@@H](NC(=O)[C@H](C)NC)C(C)(C)C)n3cc(nn3)COc3ccc(cc3)C[C@@H](NS(=O)(=O)C3CC3)NC(=O)[C@H](Cc3ccc4ccccc4c3)NC(=O)[C@@H]1C2)C(C)(C)C` 1.4

---

experiment: in vivo; details: dog, iv, 0.3 mg/kg
measure: AUC(0-t) at 7 h (µM·h)
Supply the numeric figure in µM·h, leaving out any unit text.

Reported AUC(0-t) at 7 h, compound `CN[C@@H](C)C(=O)N[C@H](C(=O)N1C[C@H]2CCCCOc3ccc(cc3)C[C@@H](C(=O)O)NC(=O)[C@H](Cc3ccc4ccccc4c3)NC(=O)[C@@H]3C[C@@H](CN3C(=O)[C@@H](NC(=O)[C@H](C)NC)C(C)(C)C)n3cc(nn3)COc3ccc(cc3)C[C@@H](NS(=O)(=O)C3CC3)NC(=O)[C@H](Cc3ccc4ccccc4c3)NC(=O)[C@@H]1C2)C(C)(C)C` : ____ 8.43

---

test: in vivo; settings: Balb/C, mouse, iv, 1 mg/kg
Reported AUC(0-t) at 7 h values for the following compounds.
Give the quantity in µM·h, number only.

May I ask what AUC(0-t) at 7 h has been recorded for `CN[C@@H](C)C(=O)N[C@H](C(=O)N1C[C@@H]2C[C@H]1C(=O)N[C@@H](Cc1ccc3ccccc3c1)C(=O)N[C@H](NS(=O)(=O)C1CC1)Cc1ccc(cc1)OCc1cn(nn1)[C@H]1C[C@@H](C(=O)N[C@@H](Cc3ccc4ccccc4c3)C(=O)N[C@H](NS(=O)(=O)C3CC3)Cc3ccc(cc3)OCc3cn2nn3)N(C(=O)[C@@H](NC(=O)[C@H](C)NC)C(C)(C)C)C1)C(C)(C)C` ? 2.35

Then what about the compound `CN[C@@H](C)C(=O)N[C@H](C(=O)N1C[C@@H]2C[C@H]1C(=O)N[C@@H](Cc1ccc3ccccc3c1)C(=O)N[C@H](NS(=O)(=O)C1CC1)Cc1ccc(cc1)OCc1cn(nn1)[C@H]1C[C@@H](C(=O)N[C@@H](Cc3ccc4ccccc4c3)C(=O)N[C@H](C(=O)O)Cc3ccc(cc3)OCc3cn2nn3)N(C(=O)[C@@H](NC(=O)[C@H](C)NC)C(C)(C)C)C1)C(C)(C)C` ? 5.85

Continuing:
Fill blank: measured AUC(0-t) at 7 h of the compound `CN[C@@H](C)C(=O)N[C@H](C(=O)N1C[C@H]2CCCCOc3ccc(cc3)C[C@@H](C(=O)O)NC(=O)[C@H](Cc3ccc4ccccc4c3)NC(=O)[C@@H]3C[C@@H](CN3C(=O)[C@@H](NC(=O)[C@H](C)NC)C(C)(C)C)n3cc(nn3)COc3ccc(cc3)C[C@@H](NS(=O)(=O)C3CC3)NC(=O)[C@H](Cc3ccc4ccccc4c3)NC(=O)[C@@H]1C2)C(C)(C)C` is ____. 4.49

---

assay: cells; conditions: Homo sapiens, A875, 72 h
measure: pIC50
Would you please state pIC50, meaning minus log10 of the concentration in mol/L, as a bare number?

Please look up its pIC50: `CN[C@@H](C)C(=O)N[C@H](C(=O)N1C[C@@H]2C[C@H]1C(=O)N[C@@H](Cc1ccc3ccccc3c1)C(=O)N[C@H](C(=O)O)Cc1ccc(cc1)OCc1cn(nn1)[C@H]1C[C@@H](C(=O)N[C@@H](Cc3ccc4ccccc4c3)C(=O)N[C@H](C(=O)OC)Cc3ccc(cc3)OCc3cn2nn3)N(C(=O)[C@@H](NC(=O)[C@H](C)NC)C(C)(C)C)C1)C(C)(C)C` 6.51
